The measured values listed here are drawn from ChEMBL document CHEMBL2331489.

Molecular target: Mitogen-activated protein kinase 1 (Homo sapiens) (UniProt P28482)
Sequence (P28482 whole entry): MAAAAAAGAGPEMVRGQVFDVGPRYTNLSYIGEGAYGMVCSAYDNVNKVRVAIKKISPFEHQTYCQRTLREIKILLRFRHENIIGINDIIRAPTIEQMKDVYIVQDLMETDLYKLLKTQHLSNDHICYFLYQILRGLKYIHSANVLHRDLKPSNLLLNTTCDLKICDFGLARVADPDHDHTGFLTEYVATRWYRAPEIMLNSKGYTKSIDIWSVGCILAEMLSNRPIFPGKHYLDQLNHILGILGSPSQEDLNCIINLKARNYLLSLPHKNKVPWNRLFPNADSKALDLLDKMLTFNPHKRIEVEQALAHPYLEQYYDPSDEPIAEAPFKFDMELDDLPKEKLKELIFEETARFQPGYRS
Test: Inhibition of MAPK1 (unknown origin) at 10 uM relative to control
# inhibition >= 30% gives Yes, anything below gives No

>>> df
                           smiles_structure  assigned_class
0   CC(C)Nc1c(C(N)=O)nnc2cc(-c3ccncc3)ccc12              No
1  CS(=O)(=O)c1ccc(-c2ccc3c(NC4CCC4)c(C(N)=O)nnc3c2)cc1              No
2   CC(C)Nc1c(C(N)=O)nnc2ccc(-c3ccncc3)cc12              No
3  CC(C)Nc1c(C(N)=O)nnc2ccc(-c3cn[nH]c3)cc12             Yes
4  CC(C)Nc1c(C(N)=O)cnc2cc(-c3ccc(S(C)(=O)=O)cc3)ccc12              No

Now take the following compound into account.
Prompt line: Item CC(C)Nc1c(C(N)=O)nnc2cc(N3CCOCC3)ccc12 with inhibition of 30% or above?
Response line: No
